species on record: Rattus norvegicus; experiment: Open TG-GATES - Regimen: Daily Repeat; assay type: toxicity, organism-based, Sprague-Dawley; parameters: regimen Daily Repeat, gender Male, age 6 weeks; details: in vivo, po, 0 mg/kg, […], tissue Plasma, route gavage, dose level Control, time 14 day
Please respond with reported CRE for every item in the list.
Give your result in mg/dL as a bare value.

Given item C=CCO , the value recorded as its CRE is 0.4

Given item Cn1cnc([N+](=O)[O-])c1Sc1ncnc2nc[nH]c12 , the value recorded as its CRE is 0.2

Given item Cc1cnc(NC(=O)C2=C(O)c3ccccc3S(=O)(=O)N2C)s1 , the value recorded as its CRE is 0.4

Given item COc1ccc(O)c(C(C)(C)C)c1.COc1ccc(O)cc1C(C)(C)C [BUTYLATED HYDROXYANISOLE] , the value recorded as its CRE is 0.2

Given item O=P1(N(CCCl)CCCl)NCCCO1 (stereo unspecified) [CYCLOPHOSPHAMIDE ANHYDROUS] , the value recorded as its CRE is 0.2

Given item O=C1NC(=O)C(c2ccccc2)(c2ccccc2)N1 , the value recorded as its CRE is 0.2

Given item CS(=O)(=O)Nc1ccc([N+](=O)[O-])cc1Oc1ccccc1 [NIMESULIDE] , the value recorded as its CRE is 0.5

Given item O=C1CN(/N=C/c2ccc(-c3ccc([N+](=O)[O-])cc3)o2)C(O)=N1 , the value recorded as its CRE is 0.6

Given item COc1ccc(Cl)cc1C(=O)NCCc1ccc(S(=O)(=O)NC(=O)NC2CCCCC2)cc1 [GLYBURIDE] , the value recorded as its CRE is 0.5

Given item Cn1c(=O)c2c(ncn2C)n(C)c1=O , the value recorded as its CRE is 0.2

Given item Cc1cccc(Nc2cc(Cl)nc(SCC(=O)O)n2)c1C , the value recorded as its CRE is 0.2

Origin of measurements: ChEMBL document CHEMBL3885861
